molecular target: RIPK1 (Homo sapiens (Human), UniProt Q13546); test: ADP-Glo kinase assay (RIPK1 activity, conversion of ATP to ADP); format: biochemical; settings: 5 nM RIPK1, 50 μM ATP, 6 h reaction; read-out: RIPK1 Enzyme Avg IC50
Sequence (Q13546 1-327): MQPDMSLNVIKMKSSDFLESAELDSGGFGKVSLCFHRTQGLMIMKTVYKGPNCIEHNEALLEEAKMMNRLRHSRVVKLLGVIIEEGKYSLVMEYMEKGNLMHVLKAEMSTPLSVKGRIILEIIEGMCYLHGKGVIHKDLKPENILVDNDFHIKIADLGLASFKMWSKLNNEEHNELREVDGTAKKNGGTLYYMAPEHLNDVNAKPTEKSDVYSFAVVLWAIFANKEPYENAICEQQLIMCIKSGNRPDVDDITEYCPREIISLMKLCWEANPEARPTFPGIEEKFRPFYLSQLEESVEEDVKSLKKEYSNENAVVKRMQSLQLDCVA

| compound | IC50 / µM |
| --- | --- |
| O=C(N1N=CCC1c1cc(F)cc(F)c1)C12CC(Cn3ccc4cncnc43)(C1)C2 (stereo not drawn) | 0.02 |
| N#Cc1cccc2c1cnn2CC12CC(C(=O)N3N=CCC3c3cc(F)cc(F)c3)(C1)C2 (stereo not drawn) | 0.019 |
| O=C(N1N=CCC1c1cc(F)cc(F)c1)C12CC(Cn3nc4ccc(F)cc4n3)(C1)C2 (stereo not drawn) | 0.018 |

###

Target: UniProt Q13546
Experiment: ADP-Glo kinase assay (RIPK1 activity, conversion of ATP to ADP)
Type: biochemical
Conditions: 5 nM RIPK1, 50 μM ATP, 6 h reaction; read-out: RIPK1 Enzyme Avg IC50
Procedure: In order to measure RIPK1 activity the ADP-Glo kinase assay (Promega, Catalog #V7002) was used to measure the conversion of ATP to ADP. […] Luminescence was measured using a BioTek Synergy™ NEO plate reader. IC50 values were calculated using a four-parameter logistic curve fit using Genedata Screener software.
measured-attribute: IC50 (nM)

| molecule | reading |
| --- | --- |
| O=C(N1N=CCC1c1cc(F)cc(F)c1)C12CC(Cn3ncc4cc(F)ccc43)(C1)C2 (centres unmarked) | 19 |
| N#Cc1cncn1CC12CC(C(=O)N3N=CCC3c3cc(F)cc(F)c3)(C1)C2 (centres unmarked) | 501 |
| O=C(N1CC(F)CC1c1cccc(F)c1)C12CC(COc3cc(Br)ncn3)(C1)C2 (centres unmarked) | 32 |
| N#Cc1ccc2c(cnn2CC23CC(C(=O)N4CCC4c4cccs4)(C2)C3)c1 (centres unmarked) | 49 |
| N#Cc1cc(OCC23CC(C(=O)N4N=CCC4c4cc(F)cc(F)c4)(C2)C3)ncn1 (centres unmarked) | 16 |

###

The reader will find reported log10 of IC50 values listed item by item below.
Biological target: RIPK1 (Homo sapiens (Human), UniProt Q13546)
Test: ADP-Glo kinase assay (RIPK1 activity, conversion of ATP to ADP)
Type: biochemical
Conditions: 5 nM RIPK1, 50 μM ATP, 6 h reaction; read-out: RIPK1 Enzyme Avg IC50
Method: In order to measure RIPK1 activity the ADP-Glo kinase assay (Promega, Catalog #V7002) was used to measure the conversion of ATP to ADP. […] Luminescence was measured using a BioTek Synergy™ NEO plate reader. IC50 values were calculated using a four-parameter logistic curve fit using Genedata Screener software.
measured-attribute: log10 of IC50 (log10 of the value in nM)

| molecule | log10 of IC50 |
| --- | --- |
| N#Cc1cccc2nn(CC34CC(C(=O)N5N=CCC5c5cc(F)cc(F)c5)(C3)C4)cc12 (centres unmarked) | 1.64 |
| O=C(N1N=CCC1c1cc(F)cc(F)c1)C12CC(Cn3cc4cccc(Cl)c4n3)(C1)C2 (centres unmarked) | 1.53 |
| N#Cc1cc(OCC23CC(C(=O)N4CC(F)CC4c4cccc(F)c4)(C2)C3)ncn1 (centres unmarked) | 1.75 |
| O=C(N1CC(F)CC1c1cccc(F)c1)C12CC(Cn3cc4cc(F)ccc4n3)(C1)C2 (centres unmarked) | 2.57 |
| NC(=O)c1ccnc(OCC23CC(C(=O)N4CC(F)CC4c4cccc(F)c4)(C2)C3)n1 (centres unmarked) | 2.18 |
| O=C(N1N=CCC1c1cc(F)cc(F)c1)C12CC(CN3CC(F)(F)C3)(C1)C2 (centres unmarked) | 2.63 |
| O=C(N1N=CCC1c1cc(F)cc(F)c1)C12CC(Cn3ncc4nccnc43)(C1)C2 (centres unmarked) | 1.26 |
| O=C(N1N=CCC1c1cc(F)cc(F)c1)C12CC(CN3CC(c4ccccc4)C3)(C1)C2 (centres unmarked) | 3.69 |
